Documented melting point across a set of compounds

Known melting point results, listed for orientation:
CN(c1cccc2cc(C3=NCC(CC(=O)N4CCOCC4)S3)[nH]c12)S(=O)(=O)c1cccs1 (stereo not given) | 173 to 174 °C
CCOC(=O)c1cn(-c2nc(F)c(F)c(NC(C)(C)C)c2F)c2c(Cl)c(F)c(F)cc2c1=O | 145 to 146 °C

stdin: Field request: melting point | item: Cc1cc2ncnc(N3CCc4ccc(Cl)cc43)c2cc1C
stdout: 199 °C

stdin: Return reported melting point; argument: CCCCCCCCCCCCCCCCCC(=O)OCCN1C(C)(C)CCCC1(C)C
stdout: 30 °C

stdin: Record request: melting point value, item OCCCCCCCCCCCN1CCCCC1
stdout: 62 to 65 °C

stdin: # query: melting point of entry CCC1=C(C#N)C(c2ccccc2Cl)c2c[nH]nc2N1 (stereo not given)
stdout: > 300 °C

stdin: melting point lookup needed for CCCCNC(=O)NS(=O)(=O)c1ccccc1S(=O)(=O)OCC(F)(F)F , thanks.
stdout: 140 to 142 °C

Source: a melting point compilation (Tetko et al.; mined from patent text by program, amines drawn as free bases though some values may be those of a salt)
